# recorded-conditions: in methyl acetate, 303.15 K
reported-endpoint: solubility (mole fraction)

Query: # input molecule: COC(=O)c1cc(OC)c2c(c1-c1c(C(=O)OC)cc(OC)c3c1OCO3)OCO2 ; wanted: its solubility (mole fraction)
Reply: 0.00775

----------
# recorded-conditions: in ethyl acetate, 303.15 K
reported-endpoint: solubility (mole fraction)
// return just the number, without any unit appended

Query: # input compound: COC(=O)c1cc(OC)c2c(c1-c1c(C(=O)OC)cc(OC)c3c1OCO3)OCO2 ; wanted: its solubility (mole fraction)
Reply: 0.0044

----------
# recorded-conditions: in n-pentanol, 313.15 K
reported-endpoint: solubility (mole fraction)
// return just the number, without any unit appended

Query: # input compound: COC(=O)c1cc(OC)c2c(c1-c1c(C(=O)OC)cc(OC)c3c1OCO3)OCO2 ; wanted: its solubility (mole fraction)
Reply: 0.000199

----------
# recorded-conditions: in n-pentyl acetate, 303.15 K
reported-endpoint: solubility (mole fraction)
// return just the number, without any unit appended

Query: # input compound: COC(=O)c1cc(OC)c2c(c1-c1c(C(=O)OC)cc(OC)c3c1OCO3)OCO2 ; wanted: its solubility (mole fraction)
Reply: 0.00154

----------
# recorded-conditions: in n-propyl acetate, 303.15 K
reported-endpoint: solubility (mole fraction)

Query: # input compound: COC(=O)c1cc(OC)c2c(c1-c1c(C(=O)OC)cc(OC)c3c1OCO3)OCO2 ; wanted: its solubility (mole fraction)
Reply: 0.00279

----------
# recorded-conditions: in isopropanol, 313.15 K
reported-endpoint: solubility (mole fraction)
// return just the number, without any unit appended

Query: # input compound: COC(=O)c1cc(OC)c2c(c1-c1c(C(=O)OC)cc(OC)c3c1OCO3)OCO2 ; wanted: its solubility (mole fraction)
Reply: 0.000223

----------
# recorded-conditions: in n-propanol, 303.15 K
reported-endpoint: solubility (mole fraction)
// return just the number, without any unit appended

Query: # input compound: COC(=O)c1cc(OC)c2c(c1-c1c(C(=O)OC)cc(OC)c3c1OCO3)OCO2 ; wanted: its solubility (mole fraction)
Reply: 0.000104

----------
# recorded-conditions: in isopropanol, 293.15 K
reported-endpoint: solubility (mole fraction)
// return just the number, without any unit appended

Query: # input compound: COC(=O)c1cc(OC)c2c(c1-c1c(C(=O)OC)cc(OC)c3c1OCO3)OCO2 ; wanted: its solubility (mole fraction)
Reply: 6.44e-05

----------
# recorded-conditions: in methyl acetate, 313.15 K
reported-endpoint: solubility (mole fraction)
// return just the number, without any unit appended

Query: # input compound: COC(=O)c1cc(OC)c2c(c1-c1c(C(=O)OC)cc(OC)c3c1OCO3)OCO2 ; wanted: its solubility (mole fraction)
Reply: 0.0124

----------
# recorded-conditions: in n-butyl acetate, 303.15 K
reported-endpoint: solubility (mole fraction)
// return just the number, without any unit appended

Query: # input compound: COC(=O)c1cc(OC)c2c(c1-c1c(C(=O)OC)cc(OC)c3c1OCO3)OCO2 ; wanted: its solubility (mole fraction)
Reply: 0.00199

----------
# recorded-conditions: in n-butanol, 303.15 K
reported-endpoint: solubility (mole fraction)
// return just the number, without any unit appended

Query: # input molecule: COC(=O)c1cc(OC)c2c(c1-c1c(C(=O)OC)cc(OC)c3c1OCO3)OCO2 ; wanted: its solubility (mole fraction)
Reply: 0.000114

----------
# recorded-conditions: in n-pentyl acetate, 333.15 K
reported-endpoint: solubility (mole fraction)
// return just the number, without any unit appended

Query: # input compound: COC(=O)c1cc(OC)c2c(c1-c1c(C(=O)OC)cc(OC)c3c1OCO3)OCO2 ; wanted: its solubility (mole fraction)
Reply: 0.00649

----------
# recorded-conditions: in ethyl acetate, 313.15 K
reported-endpoint: solubility (mole fraction)
// return just the number, without any unit appended

Query: # input molecule: COC(=O)c1cc(OC)c2c(c1-c1c(C(=O)OC)cc(OC)c3c1OCO3)OCO2 ; wanted: its solubility (mole fraction)
Reply: 0.00659

----------
# recorded-conditions: in n-pentanol, 293.15 K
reported-endpoint: solubility (mole fraction)
// return just the number, without any unit appended

Query: # input compound: COC(=O)c1cc(OC)c2c(c1-c1c(C(=O)OC)cc(OC)c3c1OCO3)OCO2 ; wanted: its solubility (mole fraction)
Reply: 6.14e-05

----------
# recorded-conditions: in acetonitrile, 313.15 K
reported-endpoint: solubility (mole fraction)

Query: # input molecule: COC(=O)c1cc(OC)c2c(c1-c1c(C(=O)OC)cc(OC)c3c1OCO3)OCO2 ; wanted: its solubility (mole fraction)
Reply: 0.0123

----------
# recorded-conditions: in acetonitrile, 303.15 K
reported-endpoint: solubility (mole fraction)

Query: # input molecule: COC(=O)c1cc(OC)c2c(c1-c1c(C(=O)OC)cc(OC)c3c1OCO3)OCO2 ; wanted: its solubility (mole fraction)
Reply: 0.00808

----------
# recorded-conditions: in n-pentyl acetate, 313.15 K
reported-endpoint: solubility (mole fraction)

Query: # input molecule: COC(=O)c1cc(OC)c2c(c1-c1c(C(=O)OC)cc(OC)c3c1OCO3)OCO2 ; wanted: its solubility (mole fraction)
Reply: 0.00244

----------
# recorded-conditions: in acetonitrile, 293.15 K
reported-endpoint: solubility (mole fraction)

Query: # input molecule: COC(=O)c1cc(OC)c2c(c1-c1c(C(=O)OC)cc(OC)c3c1OCO3)OCO2 ; wanted: its solubility (mole fraction)
Reply: 0.00542

----------
# recorded-conditions: in n-propyl acetate, 323.15 K
reported-endpoint: solubility (mole fraction)
// return just the number, without any unit appended

Query: # input molecule: COC(=O)c1cc(OC)c2c(c1-c1c(C(=O)OC)cc(OC)c3c1OCO3)OCO2 ; wanted: its solubility (mole fraction)
Reply: 0.00659

----------
# recorded-conditions: in n-pentanol, 333.15 K
reported-endpoint: solubility (mole fraction)

Query: # input compound: COC(=O)c1cc(OC)c2c(c1-c1c(C(=O)OC)cc(OC)c3c1OCO3)OCO2 ; wanted: its solubility (mole fraction)
Reply: 0.00104

----------
# recorded-conditions: in ethanol, 333.15 K
reported-endpoint: solubility (mole fraction)

Query: # input compound: COC(=O)c1cc(OC)c2c(c1-c1c(C(=O)OC)cc(OC)c3c1OCO3)OCO2 ; wanted: its solubility (mole fraction)
Reply: 0.00102

----------
# recorded-conditions: in n-propyl acetate, 333.15 K
reported-endpoint: solubility (mole fraction)

Query: # input compound: COC(=O)c1cc(OC)c2c(c1-c1c(C(=O)OC)cc(OC)c3c1OCO3)OCO2 ; wanted: its solubility (mole fraction)
Reply: 0.0117
